B1: P2RY14 (parent)
chain: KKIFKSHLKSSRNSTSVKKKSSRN

Variants of: B1
Experiment: protein stability index of a GFP-peptide fusion (GPS, HEK-293T) (PSI 1-6); higher = more stable;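 also: lentivirally expressed fusions sorted by FACS into six bins by GFP to DsRed ratio, PSI derived from sequencing read proportions per bin multiplied by bin number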
Details: c terminus: a fixed tail appended
I'd appreciate it if you could supply protein stability index values for the items below.
# answer = number (no unit)

Request: # get_value(readout='protein stability index', item= `K2V` )
Response: 3.73

Request: # get_value(readout='protein stability index', item= `T15M` )
Response: 4.01

Request: # get_value(readout='protein stability index', item= `T15Q` )
Response: 4.09

Request: # get_value(readout='protein stability index', item= `V17G` )
Response: 3.73

Request: # get_value(readout='protein stability index', item= `R23K` )
Response: 4.2

Request: # get_value(readout='protein stability index', item= `T15R` )
Response: 4.05

Request: # get_value(readout='protein stability index', item= `K1H` )
Response: 4.63

Request: # get_value(readout='protein stability index', item= `T15I` )
Response: 4.04

Request: # get_value(readout='protein stability index', item= `N13A` )
Response: 4.12

Request: # get_value(readout='protein stability index', item= `S11M` )
Response: 3.62

Request: # get_value(readout='protein stability index', item= `K18H` )
Response: 4.07

Request: # get_value(readout='protein stability index', item= `S10P` )
Response: 4.24

Request: # get_value(readout='protein stability index', item= `N24Q` )
Response: 4.23

Request: # get_value(readout='protein stability index', item= `S16P` )
Response: 4.26

Request: # get_value(readout='protein stability index', item= `S14G` )
Response: 4.22

Request: # get_value(readout='protein stability index', item= `S21A` )
Response: 3.98

Request: # get_value(readout='protein stability index', item= `K1Y` )
Response: 3.58

Request: # get_value(readout='protein stability index', item= `K19V` )
Response: 4.31

Request: # get_value(readout='protein stability index', item= `S11R` )
Response: 4.44

Request: # get_value(readout='protein stability index', item= `H7T` )
Response: 4.41

Request: # get_value(readout='protein stability index', item= `S16K` )
Response: 4.07

Request: # get_value(readout='protein stability index', item= `K18T` )
Response: 4.17
